assay: Inhibition of Micrococcus luteus IFO 3333 membrane NADH oxidase by absorbance based assay; format: cell membranes
IC50 for assorted compounds
Write the value in µM as a bare number.

compound=COc1c(/C=C/C(=O)c2ccc(O)cc2)ccc(O)c1CC=C(C)C test_result=3

Now turn to the next compound.
Exercise: # IC50 lookup, item C=CC(C)(C)c1cc(/C=C/C(=O)c2ccc(O)cc2)c(OC)cc1O [LICOAGROCHACONE A]
Solution: 6.2

---

Below, each of the molecules is paired with its reported MIC value.
tested on: Staphylococcus aureus; test: Antibacterial activity against Staphylococcus aureus IFO 3007 assessed bacterial growth inhibition by two-fold serial broth dilution method; assay type: functional
Just the number in µg/mL, nothing appended.

A selection of reference data follows.
molecule="COc1c(/C=C/C(=O)c2ccc(O)c(CC=C(C)C)c2)ccc(O)c1O [LICOCHALCONE D]" test_result=50
molecule="C=CC(C)(C)c1cc(/C=C/C(=O)c2ccc(O)cc2)c(OC)cc1O [LICOAGROCHACONE A]" test_result=1.56
molecule=COc1c(/C=C/C(=O)c2ccc(O)cc2)ccc(O)c1CC=C(C)C test_result=6.25

Exercise: Find the recorded MIC belonging to `COc1c(/C=C/C(=O)c2ccc(O)cc2)ccc(O)c1O` and report it.
Solution: 100

---

test: Inhibition of Micrococcus luteus IFO 3333 membrane NADH-cytochrome c reductase by absorbance based assay; type: cell membranes
TEST READOUT: IC50 (µM)
# value in µM; strip the unit string

compound="C=CC(C)(C)c1cc(/C=C/C(=O)c2ccc(O)cc2)c(OC)cc1O [LICOAGROCHACONE A]" test_readout=IC50 readout_units=µM test_result=14.8

Attention now turns to another entry.
Exercise: What measured IC50 goes with `COc1c(/C=C/C(=O)c2ccc(O)cc2)ccc(O)c1CC=C(C)C` ?
Solution: 29.6

---

test: Inhibition of Pseudomonas aeruginosa JCM 2776 membrane NADH oxidase by absorbance based assay; format: cell membranes
As shown below, each of these molecules has a reported IC50 value.
Just the number in µM, nothing appended.

substance_smiles=COc1c(/C=C/C(=O)c2ccc(O)cc2)ccc(O)c1CC=C(C)C readout_units=µM test_result=13.9

Exercise: Look up IC50: `C=CC(C)(C)c1cc(/C=C/C(=O)c2ccc(O)cc2)c(OC)cc1O`
Solution: 18.9

The measurements presented in this section are drawn from ChEMBL document CHEMBL5365456.
